src = paper PMC5540273

Tested on: CDKL2
measurement_conditions: concentration: 1 μM, replicates: in singlicate; n = 1;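 also: KINOMEscan kinase panel screen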
readout: %Inh (%)

compound: Fc1ccc(Nc2nccc(-c3c(-c4ccc(Cl)cc4)nn4ncccc34)n2)cc1F
recorded_value: 22
//
compound: CC(C)(C)OC(=O)NC1CCCN(c2cc(-c3ccc4c(N)n[nH]c4c3)nc(N)n2)C1 (centres unmarked)
recorded_value: 5
//
compound: Nc1nc(-c2cccnc2)c(-c2ccnc3ccccc23)s1
recorded_value: 20
//
compound: C[C@@H]1CCN(C(=O)CO)C[C@@H]1N(C)c1ncnc2[nH]ccc12
recorded_value: 2
//
compound: Fc1cccc(COc2ccc(Nc3ncnc4sc(-c5ccc[nH]5)cc34)cc2Cl)c1
recorded_value: 14
//
compound: O=C(Nc1ccccc1)Nc1ccc(Oc2ccc3nccn3n2)cc1
recorded_value: 5
//
compound: Cn1ccc2ncnc(Oc3ccc(NC(=O)Nc4cccnc4)c(Cl)c3)c21
recorded_value: 3
//
compound: CS(=O)(=O)CCNCc1nc(-c2ccc3ncnc(Nc4ccc(OCc5cccc(F)c5)c(Cl)c4)c3c2)cs1.Cl
recorded_value: 2
//
compound: Nc1nc(-c2ccc3c(N)n[nH]c3c2)cc(N2CCCCC2)n1
recorded_value: 0
//
compound: FC(F)(F)c1ccc(-c2nn3ncccc3c2-c2ccnc(Nc3cccc(C(F)(F)F)c3)n2)cc1
recorded_value: 0
//
compound: CCc1nc(-c2cccc(N(C)S(=O)(=O)c3ccccc3)c2)c(-c2ccnc(Nc3ccc(N4CCN(C(C)=O)CC4)nc3)n2)s1
recorded_value: 47
//
compound: Cc1ccc(C)c(NC(=O)NCCNc2ccnc(Nc3ccc(F)cc3)n2)c1
recorded_value: 0
//
compound: Cc1ccc(NC(=O)c2cccc(C#N)c2)cc1-c1ccc(C(=O)Nc2ccncc2)cc1
recorded_value: 40
//
compound: CC(=O)Nc1n[nH]c2ncc(-c3ccccc3)cc12
recorded_value: 6
//
compound: Clc1cccc(-c2nc(Nc3ccncc3)c3ccccc3n2)c1
recorded_value: 35
//
compound: O=C(CCO)NCCn1ccc2ncnc(Nc3ccc(Oc4cccc(C(F)(F)F)c4)c(Cl)c3)c21
recorded_value: 9
//
compound: Cl.c1ccc(Cn2ncc3cc(Nc4ncnc5ccccc45)ccc32)cc1
recorded_value: 8
//
compound: Cn1cc(-c2ccc3c(c2)CCN3C(=O)Cc2cccc(C(F)(F)F)c2)c2c(N)ncnc21
recorded_value: 15
//
compound: CCCc1ccc(S(=O)(=O)NC2CCN(c3ccnc(Nc4ccc(OC)cc4)n3)C2)cc1 (centres unmarked)
recorded_value: 19
//
compound: COC(=O)c1cccc(NC(=O)NCCNc2ccnc(Nc3ccc(F)cc3)n2)c1
recorded_value: 5

###

Tested on: TBK1
measurement_conditions: concentration: 1 μM, replicates: in singlicate; n = 1
readout: %Inh (%)

molecule: CSc1ccc(NC2=C(c3ccccc3Cl)C(=O)NC2=O)cc1
readout: %Inh
recorded_value: 27
//
molecule: C[C@@H]1CCN(C(=O)CO)C[C@@H]1N(C)c1ncnc2[nH]ccc12
readout: %Inh
recorded_value: 1
//
molecule: Cn1ccc2ncnc(Nc3ccc(Oc4cccc(Cl)c4)c(Cl)c3)c21
readout: %Inh
recorded_value: 28
//
molecule: Fc1cccc(COc2ccc(Nc3ncnc4nn5ccccc5c34)cc2Cl)c1
readout: %Inh
recorded_value: 0
//
molecule: O=C(Nc1ccccc1F)NC1CCN(c2ccnc(Nc3ccc(F)cc3)n2)C1 (stereo not drawn)
readout: %Inh
recorded_value: 0
//
molecule: COC(=O)c1cccc(NC(=O)NCCNc2ccnc(Nc3ccc(F)cc3)n2)c1
readout: %Inh
recorded_value: 16
//
molecule: Cl.c1ccc(Cn2ccc3cc(Nc4ncnc5ccccc45)ccc32)cc1
readout: %Inh
recorded_value: 39
//
molecule: Nc1nc(-c2cccnc2)c(-c2ccnc3ccccc23)s1
readout: %Inh
recorded_value: 2
//
molecule: CS(=O)(=O)CCNCc1nc(-c2ccc3ncnc(Nc4ccc(OCc5cccc(F)c5)c(Cl)c4)c3c2)cs1.Cl
readout: %Inh
recorded_value: 14
//
molecule: CC(C)N1CCC(n2cnc(-c3ccc(F)cc3)c2-c2ccnc(N)n2)CC1
readout: %Inh
recorded_value: 50
//
molecule: Fc1ccc(-c2ncn(CCCNCc3ccccc3)c2-c2ccncc2)cc1
readout: %Inh
recorded_value: 25
//
molecule: COc1ccc(NC(=O)Nc2ccc(C)c(-c3ccc(C(=O)Nc4ccncc4)cc3)c2)cc1
readout: %Inh
recorded_value: 6
//
molecule: Oc1ccc2ncnc(Nc3ccc(OCc4ccccc4)cc3)c2c1
readout: %Inh
recorded_value: 0
//
molecule: CS(=O)(=O)CCNCc1ccc(-c2ccc3ncnc(Nc4ccc(OCc5ccccc5)c(Cl)c4)c3c2)o1.Cl
readout: %Inh
recorded_value: 2
//
molecule: CCc1nc(-c2cccc(C)c2)c(-c2ccnc(NC(=O)c3ccccc3)c2)s1
readout: %Inh
recorded_value: 10
//
molecule: Nc1nc(-c2ccc3c(N)n[nH]c3c2)cc(N2CCCCC2)n1
readout: %Inh
recorded_value: 23
//
molecule: Cc1ccc(NC(=O)c2cccc(C#N)c2)cc1-c1ccc(C(=O)Nc2ccncc2)cc1
readout: %Inh
recorded_value: 20
//
molecule: Cn1ccc2ncnc(Oc3ccc(NC(=O)Nc4cccnc4)c(Cl)c3)c21
readout: %Inh
recorded_value: 5
